meta.source: paper PMC6858373

System: Clone V cells
Conditions: human, 16 h, 30 µM
OBSERVED_PROPERTY: Toxicity Assay Z-score (CTB cell viability)
Answers are plain numbers.

Query: For the compound `CCCCCOC(=O)Nc1nc(=O)n([C@@H]2O[C@H](C)[C@@H](O)[C@H]2O)cc1F` , give its measured Toxicity Assay Z-score (CTB cell viability) value.
Response: 1.00

Query: For the compound CN(Cc1cnc2nc(N)nc(N)c2n1)c1ccc(C(=O)N[C@@H](CCC(=O)O)C(=O)O)cc1 [Methotrexate] , give its measured Toxicity Assay Z-score (CTB cell viability) value.
Response: 0.27

Query: For the compound `S=P(N1CC1)(N1CC1)N1CC1` , give its measured Toxicity Assay Z-score (CTB cell viability) value.
Response: 1.01

Please find the next compound below.
Query: For the compound `C#Cc1cccc(Nc2ncnc3cc(OCCOC)c(OCCOC)cc23)c1` , give its measured Toxicity Assay Z-score (CTB cell viability) value.
Response: 0.46

---

Target: full-length P. pyralis luciferase (Photinus pyralis, UniProt P08659, K549A/L550V/N119G/N50D/S548I)
Sequence (P08659 whole entry N50D/N119G/S548I/K549A/L550V, looked up): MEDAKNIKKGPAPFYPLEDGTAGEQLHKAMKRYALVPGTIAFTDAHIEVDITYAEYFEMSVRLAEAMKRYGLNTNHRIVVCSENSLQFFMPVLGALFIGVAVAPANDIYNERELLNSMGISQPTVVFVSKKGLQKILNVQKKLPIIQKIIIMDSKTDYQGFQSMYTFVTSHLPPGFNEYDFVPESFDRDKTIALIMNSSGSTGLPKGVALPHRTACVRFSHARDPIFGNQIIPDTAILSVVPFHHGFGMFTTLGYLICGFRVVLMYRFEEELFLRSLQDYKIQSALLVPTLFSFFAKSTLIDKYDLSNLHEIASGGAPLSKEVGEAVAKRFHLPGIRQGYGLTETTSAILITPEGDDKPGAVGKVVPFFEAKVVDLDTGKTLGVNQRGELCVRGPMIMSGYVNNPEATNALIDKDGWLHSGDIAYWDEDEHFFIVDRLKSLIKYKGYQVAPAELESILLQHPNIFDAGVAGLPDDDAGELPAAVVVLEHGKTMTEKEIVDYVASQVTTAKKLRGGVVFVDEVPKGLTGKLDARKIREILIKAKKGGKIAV
Format: cell-based
Details: CC_NCI screening; full-length luciferase counter-screen; normalized to on-plate 0.3% DMSO controls
OBSERVED_PROPERTY: Luciferase Assay Z-score
Numbers only.

As a guide, the following entries are already answered.
Query: For the compound `COC(=O)c1ccc2c(c1)NC(=O)/C2=C(\Nc1ccc(N(C)C(=O)CN2CCN(C)CC2)cc1)c1ccccc1` , give its measured Luciferase Assay Z-score value.
Response: 0.26

Query: For the compound `Cn1cnc2c(F)c(Nc3ccc(Br)cc3Cl)c(C(=O)NOCCO)cc21` , give its measured Luciferase Assay Z-score value.
Response: -0.51

Query: For the compound `CO[C@@H]1[C@H](N(C)C(=O)c2ccccc2)C[C@H]2O[C@]1(C)n1c3ccccc3c3c4c(c5c6ccccc6n2c5c31)C(=O)NC4` , give its measured Luciferase Assay Z-score value.
Response: -1.34

Query: For the compound `Cc1ccc(C(=O)Nc2ccc(CN3CCN(C)CC3)c(C(F)(F)F)c2)cc1C#Cc1cnc2cccnn12` , give its measured Luciferase Assay Z-score value.
Response: -1.93

Query: For the compound `CN(NC(=O)CC(=O)NN(C)C(=S)c1ccccc1)C(=S)c1ccccc1` , give its measured Luciferase Assay Z-score value.
Response: -0.13

Hey, can you go through the list below and give me Luciferase Assay Z-score for every item?
1. Clc1ccc(Nc2nnc(Cc3ccncc3)c3ccccc23)cc1
2. COc1ccc(Cl)cc1[C@]1(F)C(=O)Nc2cc(C(F)(F)F)ccc21
3. CO[C@H]1C(=O)[C@]2(C)[C@@H](OC)C[C@H]3OC[C@@]3(OC(C)=O)[C@H]2[C@H](OC(=O)c2ccccc2)[C@]2(O)C[C@H](OC(=O)[C@H](O)[C@@H](NC(=O)OC(C)(C)C)c3ccccc3)C(C)=C1C2(C)C
4. COc1cc2c(Oc3ccc4[nH]c(C)cc4c3F)ncnc2cc1OCCCN1CCCC1
5. CNC(=O)c1cc(Oc2ccc(NC(=O)Nc3ccc(Cl)c(C(F)(F)F)c3)cc2)ccn1 [Sorafenib, reference compound]
6. CN[C@@H]1C[C@H]2O[C@@](C)([C@@H]1OC)n1c3ccccc3c3c4c(c5c6ccccc6n2c5c31)C(=O)NC4 [Staurosporine, reference compound]

Response:
1: -2.76; 2: -8.12; 3: -1.23; 4: -2.45; 5: -1.47; 6: 0.20

Hey, can you go through the list below and give me Luciferase Assay Z-score for every item?
1. CC(C)C[C@H](NC(=O)[C@H](Cc1ccccc1)NC(=O)c1cnccn1)B(O)O [Bortezomib]
2. O=C(/C=C/c1ccc(CN(CCO)CCc2c[nH]c3ccccc23)cc1)NO
3. Cc1nc(Nc2ncc(C(=O)Nc3c(C)cccc3Cl)s2)cc(N2CCN(CCO)CC2)n1 [DASATINIB]

Response:
[-2.12, -0.61, -2.19]

Query: For the compound `CCCCCCCCCCCCSc1nc2c([nH]1)c(=O)n(C)c(=O)n2C` , give its measured Luciferase Assay Z-score value.
Response: 0.40

---

Biological target: full-length P. pyralis luciferase (Photinus pyralis, UniProt P08659, K549A/L550V/N119G/N50D/S548I)
Type: cell-based
Settings: CC_NCI screening; normalized to on-plate 0.3% DMSO controls
Could you please report measured Luciferase Assay % Lum (full-length luciferase counter-screen) for the items listed next?
Answers are plain numbers, in %.

As a guide, the following entries are already answered.
Query: For the molecule `CCCCCOC(=O)Nc1nc(=O)n([C@@H]2O[C@H](C)[C@@H](O)[C@H]2O)cc1F` , give its measured Luciferase Assay % Lum (full-length luciferase counter-screen) value.
Response: 100.06

Query: For the molecule `NC(=O)Nc1cc(-c2cccc(F)c2)sc1C(=O)N[C@H]1CCCNC1` , give its measured Luciferase Assay % Lum (full-length luciferase counter-screen) value.
Response: 92.74

Query: For the molecule O=P1(NCCCl)OCCCN1CCCl (centres unmarked) [Ifosfamide] , give its measured Luciferase Assay % Lum (full-length luciferase counter-screen) value.
Response: 96.59

Query: For the molecule `Cn1cc(/C=C2\C(=O)Nc3cccnc32)c2ccccc21` , give its measured Luciferase Assay % Lum (full-length luciferase counter-screen) value.
Response: 109.93

Hey, can you go through the list below and give me Luciferase Assay % Lum (full-length luciferase counter-screen) for every item?
1. COc1cc(N2CCC(N3CCN(C)CC3)CC2)ccc1Nc1ncc(Cl)c(Nc2ccccc2S(=O)(=O)C(C)C)n1
2. CC(=O)O[C@@]12CO[C@@H]1C[C@H](O)[C@@]1(C)C(=O)[C@H](O)C3=C(C)[C@@H](OC(=O)[C@H](O)[C@@H](NC(=O)OC(C)(C)C)c4ccccc4)C[C@@](O)([C@@H](OC(=O)c4ccccc4)[C@H]21)C3(C)C

Response:
96.39
101.54

Hey, can you go through the list below and give me Luciferase Assay % Lum (full-length luciferase counter-screen) for every item?
1. Fc1ccc(Cl)cc1-c1nc(Nc2ccncc2)c2nccnc2n1
2. N.N.O=C([O-])C1(C(=O)[O-])CCC1.[Pt+2]

Response:
88.62
96.43

---

Target: full-length P. pyralis luciferase (Photinus pyralis, UniProt P08659, K549A/L550V/N119G/N50D/S548I)
Format: cell-based
OBSERVED_PROPERTY: Luciferase Assay % Lum (%)
One number for each entry, in %.

Hey, can you go through the list below and give me Luciferase Assay % Lum for every item?
1. c1cc(CN2CCCNCCNCCCNCC2)ccc1CN1CCCNCCNCCCNCC1
2. O=P1(N(CCCl)CCCl)NCCCO1 (stereo not drawn) [Cyclophosphamide]
3. OC[C@H]1O[C@@H](n2cnc3c2NC=NC[C@H]3O)C[C@@H]1O
4. C[C@]12CC[C@@H]3c4ccc(OC(=O)N(CCCl)CCCl)cc4CC[C@H]3[C@@H]1CC[C@@H]2OP(=O)(O)O [Estramustine phosphate sodium]
5. CN(C)C(=N)N=C(N)N
6. COc1cc2ncnc(Nc3ccc(F)c(Cl)c3)c2cc1OCCCN1CCOCC1

Response:
[97.43, 101.62, 97.96, 86.35, 96.22, 85.80]

---

Molecular target: full-length P. pyralis luciferase (Photinus pyralis, UniProt P08659, K549A/L550V/N119G/N50D/S548I)
Format: cell-based
Details: CC_NCI screening; normalized to on-plate 0.3% DMSO controls
Where a name gives a salt, the structure may show the parent alone.
Could you please report measured Luciferase Assay Z-score (full-length luciferase counter-screen) for the items listed next?
One number for each entry.

Query: For the molecule O=C(O)CCCc1ccc(N(CCCl)CCCl)cc1 [Chlorambucil, reference compound] , give its measured Luciferase Assay Z-score (full-length luciferase counter-screen) value.
Response: -0.27

Query: For the molecule CS(=O)(=O)c1ccc(C2=C(c3ccccc3)C(=O)OC2)cc1 [ROFECOXIB] , give its measured Luciferase Assay Z-score (full-length luciferase counter-screen) value.
Response: 0.34

Query: For the molecule CC[C@]1(O)C[C@@H]2CN(CCc3c([nH]c4ccccc34)[C@@](C(=O)OC)(c3cc4c(cc3OC)N(C)[C@H]3[C@@](O)(C(=O)OC)[C@H](OC(C)=O)[C@]5(CC)C=CCN6CC[C@]43[C@@H]65)C2)C1 [Vinblastine sulfate] , give its measured Luciferase Assay Z-score (full-length luciferase counter-screen) value.
Response: 1.25

New cases:
Query: For the molecule N#Cc1c(O)c2c(-c3ccc(-c4ccccc4O)cc3)csc2[nH]c1=O [Compound A-769662] , give its measured Luciferase Assay Z-score (full-length luciferase counter-screen) value.
Response: -2.58

---

Target: full-length P. pyralis luciferase (Photinus pyralis, UniProt P08659, K549A/L550V/N119G/N50D/S548I)
Type: cell-based
Conditions: CC_NCI screening; full-length luciferase counter-screen luminescence; normalized to on-plate 0.3% DMSO controls
Could you please report measured Luciferase Assay % Lum for the items listed next?
Answers are plain numbers, in %.

Query: For the compound COC(=O)C[C@](O)(CCCC(C)(C)O)C(=O)O[C@@H]1C(OC)=C[C@]23CCCN2CCc2cc4c(cc2[C@H]13)OCO4 [Omacetaxine mepesuccinate] , give its measured Luciferase Assay % Lum value.
Response: 87.82

Query: For the compound `CC1(C)CCC(c2ccc(Cl)cc2)=C(CN2CCN(c3ccc(C(=O)NS(=O)(=O)c4ccc(N[C@H](CCN5CCOCC5)CSc5ccccc5)c(S(=O)(=O)C(F)(F)F)c4)cc3)CC2)C1` , give its measured Luciferase Assay % Lum value.
Response: 103.24

Query: For the compound COc1cc2ncn(-c3cc(OCc4ccccc4C(F)(F)F)c(C(N)=O)s3)c2cc1OC [GW 843682X] , give its measured Luciferase Assay % Lum value.
Response: 102.89

Query: For the compound CN(C)C/C=C/C(=O)Nc1cc2c(Nc3ccc(F)c(Cl)c3)ncnc2cc1O[C@H]1CCOC1 [BIBW2992] , give its measured Luciferase Assay % Lum value.
Response: 76.41

Query: For the compound `CN1CCN(c2ccc3nc(-c4c(N)c5c(F)cccc5[nH]c4=O)[nH]c3c2)CC1` , give its measured Luciferase Assay % Lum value.
Response: 93.31

Query: For the compound `O=P(O)(O)C(O)(Cn1ccnc1)P(=O)(O)O` , give its measured Luciferase Assay % Lum value.
Response: 94.25

Please find the next compound below.
Query: For the compound C[C@]12O[C@H](C[C@]1(O)CO)n1c3ccccc3c3c4c(c5c6ccccc6n2c5c31)CNC4=O [Lestaurtinib, reference compound] , give its measured Luciferase Assay % Lum value.
Response: 87.58
